// data source = PubChem BioAssay AID1159580

Reported values of normalized growth for individual entries
assay: chemical genetic growth profiling, strain panel (AID 1159580);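 note: tested at 20 µM; growth read once vehicle control cultures reached saturation at 30 °C; 1 = growth at the plate median or of vehicle wells; lower values mean less growth of the strain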; details: S. cerevisiae deletion strains, growth OD, locus YNL224C, strain SQS1, stronger effect = lower value
Out of some 5,500 compounds screened, about 2,000 (36%) were called active. Another 18% or so got no clear call; they are omitted. The list shows a part of the results.
readoutType: normalized growth

INSERT INTO assay_data (compound, readouttype, valueobserved) VALUES
  ('CCCn1c(C)c(C(=O)c2ccc3ccccc3c2)c2ccccc21', 'normalized growth', '1 (inactive)'),
  ('Nc1nc(Cl)nc2c1ncn2[C@@H]1O[C@H](COP(=O)(O)OP(=O)(O)OP(=O)(O)O)[C@H](O)C1O (stereo not given in full)', 'normalized growth', '0.987 (inactive)'),
  ('COc1[nH]c2ccc(F)cc2c1C(=O)OCC1CCN(CCNS(C)(=O)=O)CC1', 'normalized growth', '1.01 (inactive)'),
  ('Clc1ccc(N2CC3CCC(C2)N3)nn1', 'normalized growth', '1 (inactive)'),
  ('CC(O)C(O)[C@H]1CNc2nc(N)[nH]c(=O)c2N1 (stereo not given in full)', 'normalized growth', '1 (inactive)');
